Every entry's value here was drawn from paper PMC8006714.

# MEASUREMENT_TARGET: SARS-CoV-2 M^pro (Severe acute respiratory syndrome coronavirus 2)
# ASSAY_PROCEDURE: biochemical
# Assay type: biochemical
REPORTED_METRIC: % Mpro inhibition at 20 µM (%)
Kindly provide the numeric value in % only, without the unit symbol.

Worked set:
MOLECULE: NC(=O)CI [Iodoacetamide]
MEASUREMENT_TARGET: SARS-CoV-2 M^pro (Severe acute respiratory syndrome coronavirus 2)
% Mpro inhibition at 20 µM (%): 99.3

MOLECULE: CC=CC1=C(C(=O)O)N2C(=O)[C@@H](NC(=O)[C@H](N)c3ccc(O)cc3)[C@H]2SC1
MEASUREMENT_TARGET: SARS-CoV-2 M^pro (Severe acute respiratory syndrome coronavirus 2)
% Mpro inhibition at 20 µM (%): 57.5

MOLECULE: N.S=C(S)N1CCCC1 [Ammonium pyrrolidinedithiocarbamate]
MEASUREMENT_TARGET: SARS-CoV-2 M^pro (Severe acute respiratory syndrome coronavirus 2)
% Mpro inhibition at 20 µM (%): 95.1

MOLECULE: O=C([O-])c1ccccc1-c1c2cc(I)c(=O)c(I)c-2oc2c(I)c([O-])c(I)cc12.[Na+].[Na+] [Erythrosine sodium]
MEASUREMENT_TARGET: SARS-CoV-2 M^pro (Severe acute respiratory syndrome coronavirus 2)
% Mpro inhibition at 20 µM (%): 86.5

MOLECULE: C[n+]1cc2c3c(ccc2c2ccc4cc5c(cc4c21)OCO5)OCO3 [Sanguinarium chloride, Sanguinarine chloride]
MEASUREMENT_TARGET: SARS-CoV-2 M^pro (Severe acute respiratory syndrome coronavirus 2)
% Mpro inhibition at 20 µM (%): 98.7

MOLECULE: Cc1ccc(S(=O)(=O)/C=C/C#N)cc1
MEASUREMENT_TARGET: SARS-CoV-2 M^pro (Severe acute respiratory syndrome coronavirus 2)
% Mpro inhibition at 20 µM (%): 92.0

Measured % Mpro inhibition at 20 µM of Br.CN=c1nc(-c2ccccc2)n(-c2ccccc2)s1 [Sch-202676 hydrobromide] : 100.0

Measured % Mpro inhibition at 20 µM of CC(C)N(CCC(=O)c1ccc2ccccc2c1)Cc1ccccc1.Cl [ZM 39923 hydrochloride] : 96.9

Measured % Mpro inhibition at 20 µM of Br.CCCN1CCc2cc(O)cc3c2[C@H]1Cc1ccc(O)c(O)c1-3 : 98.3

Measured % Mpro inhibition at 20 µM of CC(C)(C)c1ccc(S(=O)(=O)/C=C/C#N)cc1 : 95.0

Measured % Mpro inhibition at 20 µM of CC(=O)OCC1=C(C(=O)[O-])N2C(=O)[C@@H](NC(=O)CCCC(N)C(=O)O)[C@H]2SC1.[Na+] (stereo partly drawn) [Cephalosporin C sodium] : 78.3
